Cited source: patent US20140120083A1

- targetUnderTest: PI3K δ (Homo sapiens)
- Sequence (O00329 whole entry): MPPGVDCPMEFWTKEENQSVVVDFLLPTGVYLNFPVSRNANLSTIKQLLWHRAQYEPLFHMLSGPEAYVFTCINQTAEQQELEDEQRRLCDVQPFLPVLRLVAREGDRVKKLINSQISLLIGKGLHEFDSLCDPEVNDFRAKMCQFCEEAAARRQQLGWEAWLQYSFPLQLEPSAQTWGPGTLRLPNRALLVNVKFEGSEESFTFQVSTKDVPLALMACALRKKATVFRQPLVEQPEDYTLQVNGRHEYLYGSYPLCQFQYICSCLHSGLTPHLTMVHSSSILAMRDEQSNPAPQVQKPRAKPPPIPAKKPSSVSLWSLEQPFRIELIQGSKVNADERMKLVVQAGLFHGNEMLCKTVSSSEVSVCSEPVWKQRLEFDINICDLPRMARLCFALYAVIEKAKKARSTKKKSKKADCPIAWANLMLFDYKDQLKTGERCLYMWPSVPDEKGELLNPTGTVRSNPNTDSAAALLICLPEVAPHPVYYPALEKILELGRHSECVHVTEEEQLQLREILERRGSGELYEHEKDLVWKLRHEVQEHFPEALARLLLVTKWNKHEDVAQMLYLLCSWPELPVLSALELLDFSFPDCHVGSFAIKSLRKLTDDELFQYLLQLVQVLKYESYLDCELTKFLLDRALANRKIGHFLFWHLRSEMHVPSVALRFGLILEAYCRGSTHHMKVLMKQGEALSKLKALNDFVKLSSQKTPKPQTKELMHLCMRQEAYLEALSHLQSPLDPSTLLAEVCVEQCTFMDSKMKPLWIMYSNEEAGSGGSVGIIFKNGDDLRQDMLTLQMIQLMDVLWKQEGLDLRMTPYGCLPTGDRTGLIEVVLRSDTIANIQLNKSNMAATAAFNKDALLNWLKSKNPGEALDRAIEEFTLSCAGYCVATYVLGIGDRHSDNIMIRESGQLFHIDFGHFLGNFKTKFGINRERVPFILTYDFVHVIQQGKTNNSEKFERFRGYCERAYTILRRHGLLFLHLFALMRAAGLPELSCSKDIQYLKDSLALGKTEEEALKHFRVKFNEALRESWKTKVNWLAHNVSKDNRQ
- Sequence (P27986 whole entry partner): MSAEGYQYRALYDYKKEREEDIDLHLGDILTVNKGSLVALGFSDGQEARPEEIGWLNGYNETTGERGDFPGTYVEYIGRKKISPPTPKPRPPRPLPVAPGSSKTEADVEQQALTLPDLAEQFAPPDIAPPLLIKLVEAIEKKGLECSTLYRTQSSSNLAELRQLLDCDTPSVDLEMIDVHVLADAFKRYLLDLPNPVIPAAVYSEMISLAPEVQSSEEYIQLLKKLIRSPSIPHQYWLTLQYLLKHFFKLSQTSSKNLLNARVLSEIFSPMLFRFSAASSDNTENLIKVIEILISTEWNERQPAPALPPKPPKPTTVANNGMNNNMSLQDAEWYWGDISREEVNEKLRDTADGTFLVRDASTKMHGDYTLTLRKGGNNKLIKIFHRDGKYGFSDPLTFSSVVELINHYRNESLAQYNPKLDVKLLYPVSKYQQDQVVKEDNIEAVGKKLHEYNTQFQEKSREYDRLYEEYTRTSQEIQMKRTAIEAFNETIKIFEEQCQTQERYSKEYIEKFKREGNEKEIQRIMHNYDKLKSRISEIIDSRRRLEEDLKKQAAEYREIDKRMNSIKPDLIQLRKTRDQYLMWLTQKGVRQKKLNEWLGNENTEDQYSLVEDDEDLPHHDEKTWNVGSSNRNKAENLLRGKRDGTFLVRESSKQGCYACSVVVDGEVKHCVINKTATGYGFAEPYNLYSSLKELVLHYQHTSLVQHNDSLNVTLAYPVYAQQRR
pIC50: −log10 of the molar value.
valueType: pIC50

compound | reported
Cc1cccc2cc(Cn3nc(I)c4c(N)ncnc43)n(C3CCCC3)c(=O)c12 [Compound 57] | > 6.00
Nc1ncnc2c1c(I)nn2Cc1cc2cccc(F)c2c(=O)n1-c1ccccc1F [Compound 132] | > 5.00
Cc1cccc2cc(Cn3nc(-c4cccc(O)c4)c4c(N)ncnc43)n(-c3ccccc3C(C)C)c(=O)c12 [Compound 82] | > 7.00
Cc1cccc2cc(Cn3nc(-c4cn[nH]c4)c4c(N)ncnc43)n(-c3cccc(F)c3)c(=O)c12 [Compound 166] | > 7.00
Cc1ccccc1-n1c(Cn2nc(C(=O)O)c3c(N)ncnc32)cc2cccc(C)c2c1=O [Compound 297] | > 6.00
CCc1ccccc1-n1c(Cn2nc(-c3cc(O)cc(F)c3)c3c(N)ncnc32)cc2cccc(C)c2c1=O [Compound 89] | > 7.00
C[C@H](Nc1ncnc2[nH]cnc12)c1cc2cccc(Cl)c2c(=O)n1C1CC1 [Compound 270] | > 7.00
Cc1ccccc1-n1c(C(C)Nc2ncnc3[nH]cnc23)cc2cccc(C)c2c1=O (stereo not drawn) [Compound 191] | > 7.00
CC(Nc1ncnc2[nH]cnc12)c1cc2ccccc2c(=O)n1-c1ccccc1 (stereo not drawn) [Compound 220] | > 7.00
Cc1ccccc1-n1c(Cn2nc(-c3cccc(F)c3)c3c(N)ncnc32)cc2cccc(C)c2c1=O [Compound 41] | > 5.00
Cc1cccc2cc(Cn3nc(-c4cccc(Cl)c4)c4c(N)ncnc43)n(-c3ccccc3F)c(=O)c12 [Compound 38] | > 5.00
CNC(=O)c1nn(Cc2cc3cccc(C)c3c(=O)n2-c2ccccc2C)c2ncnc(N)c12 [Compound 305] | > 5.00

====

- targetUnderTest: PI3K α (Homo sapiens, UniProt P42336)
- Construct: purchased Upstate
- Sequence (P42336 whole entry, one chain of several): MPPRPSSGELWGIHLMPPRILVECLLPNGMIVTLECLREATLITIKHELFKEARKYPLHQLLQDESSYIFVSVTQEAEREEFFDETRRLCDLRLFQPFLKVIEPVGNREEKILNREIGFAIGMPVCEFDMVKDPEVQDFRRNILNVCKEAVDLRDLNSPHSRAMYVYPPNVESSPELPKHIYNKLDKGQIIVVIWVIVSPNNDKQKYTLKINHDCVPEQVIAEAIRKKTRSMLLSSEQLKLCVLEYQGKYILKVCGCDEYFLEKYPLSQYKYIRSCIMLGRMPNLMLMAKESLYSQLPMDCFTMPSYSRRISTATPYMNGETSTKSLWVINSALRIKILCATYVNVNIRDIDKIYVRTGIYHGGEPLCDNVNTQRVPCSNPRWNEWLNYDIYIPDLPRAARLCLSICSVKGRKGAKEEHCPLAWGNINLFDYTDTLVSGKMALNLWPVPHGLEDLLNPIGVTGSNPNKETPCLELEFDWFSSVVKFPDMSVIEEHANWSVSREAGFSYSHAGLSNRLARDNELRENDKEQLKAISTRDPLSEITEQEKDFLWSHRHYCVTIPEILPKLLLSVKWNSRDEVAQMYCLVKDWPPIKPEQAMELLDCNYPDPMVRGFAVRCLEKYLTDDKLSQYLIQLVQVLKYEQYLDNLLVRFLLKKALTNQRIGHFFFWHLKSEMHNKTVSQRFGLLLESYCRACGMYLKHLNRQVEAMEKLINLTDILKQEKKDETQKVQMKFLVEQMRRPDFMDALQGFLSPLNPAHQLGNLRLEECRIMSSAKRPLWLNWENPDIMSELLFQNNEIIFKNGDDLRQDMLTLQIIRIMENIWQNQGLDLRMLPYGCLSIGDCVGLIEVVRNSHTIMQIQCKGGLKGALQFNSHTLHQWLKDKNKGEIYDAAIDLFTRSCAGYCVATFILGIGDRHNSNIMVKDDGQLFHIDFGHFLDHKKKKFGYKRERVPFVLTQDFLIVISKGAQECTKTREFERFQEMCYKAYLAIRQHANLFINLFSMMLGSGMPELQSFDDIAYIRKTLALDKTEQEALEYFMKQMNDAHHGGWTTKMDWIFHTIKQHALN
- testSummary: In vitro IC50, PI3K α
- Format: biochemical
IC50 values, listed per item
valueType: IC50

compound | valueType | reported
CC(=O)Nc1nc2ccc(-c3nn(Cc4cc5cccc(C)c5c(=O)n4C4CCC4)c4ncnc(N)c34)cc2s1 | IC50 | < 0.1 µM
Cc1cccc2cc(Cn3nc(I)c4c(N)ncnc43)n(C3CC3)c(=O)c12 | IC50 | < 10 µM
CCC(Nc1ncnc2[nH]cnc12)c1cc2cccc(C)c2c(=O)n1C(C)C (stereo not shown) | IC50 | > 10 µM
CCC(Nc1ncnc2[nH]cnc12)c1cc2cccc(C)c2c(=O)n1C1CCN(C)CC1 (stereo not shown) | IC50 | > 10 µM

====

In what follows, each item is paired with its IC50 for PI3K γ (Homo sapiens, UniProt P48736).

chemicalSmiles | targetUnderTest | IC50
Cc1cccc2cc([C@H](C)Nc3ncnc4[nH]cc(C#N)c34)n(-c3ccccc3)c(=O)c12 | PI3K γ (Homo sapiens, UniProt P48736) | < 0.1 µM
Cc1ccccc1-n1c(Cn2nc(/C=C/C(=O)N3CCOCC3)c3c(N)ncnc32)cc2cccc(C)c2c1=O | PI3K γ (Homo sapiens, UniProt P48736) | > 10 µM
CC(=O)Nc1nc2ccc(-c3nn(Cc4cc5cccc(C)c5c(=O)n4-c4ccccc4)c4ncnc(N)c34)cc2s1 | PI3K γ (Homo sapiens, UniProt P48736) | < 0.1 µM
Cc1cccc2cc([C@H](C)Nc3ncnc4[nH]ncc34)n(-c3ccccc3)c(=O)c12 | PI3K γ (Homo sapiens, UniProt P48736) | < 10 µM

====

- testSummary: Pharmacokinetics, dog
- Format: in vivo, Beagle dogs
- statedConditions: beagle, in vivo, po, 5 mg/kg, PO, 5 mg/kg (study with 0.5 mg/kg IV), read-out: Cmax

compound | Cmax
C[C@H](Nc1ncnc2[nH]cnc12)c1cc2cccc(Cl)c2c(=O)n1-c1ccccc1 [Compound 292] | 9600 ng/mL

====

- testSummary: Clinical study in healthy adult subjects, pharmacokinetics
- Assay type: in vivo, human
- statedConditions: human, plasma, oral, 1 mg, 1 mg Q12 h, Day 1; mean (% CV); read-out: Cmax

compound | Cmax, ng/mL
C[C@H](Nc1ncnc2[nH]cnc12)c1cc2cccc(Cl)c2c(=O)n1-c1ccccc1 [Compound 292] | 49.1

====

pIC50: −log10 of the molar value.
Measured pIC50 (PI3K δ (Homo sapiens))
valueType: pIC50

compound | targetUnderTest | valueType | reported
Cc1cccc2cc(Cn3nc(-c4cccc(O)c4)c4c(N)ncnc43)n(C3CCCCC3)c(=O)c12 | PI3K δ (Homo sapiens) | pIC50 | > 7.00
Cc1ccccc1-n1c(Cn2nc(/C=C3/SC(=O)NC3=O)c3c(N)ncnc32)cc2cccc(C)c2c1=O | PI3K δ (Homo sapiens) | pIC50 | > 7.00
Cc1cccc2cc([C@H](C)Nc3ncnc4[nH]ccc34)n(C3CC3)c(=O)c12 | PI3K δ (Homo sapiens) | pIC50 | > 7.00
Cc1cccc2cc(Cn3nc(-c4ccc(F)c(O)c4)c4c(N)ncnc43)n(-c3ccccc3F)c(=O)c12 | PI3K δ (Homo sapiens) | pIC50 | > 7.00
C=Cc1nn(Cc2cc3cccc(C)c3c(=O)n2-c2ccccc2)c2ncnc(N)c12 | PI3K δ (Homo sapiens) | pIC50 | > 7.00
Cc1cccc2cc(Cn3nc(I)c4c(N)ncnc43)n(C3CCCCC3)c(=O)c12 | PI3K δ (Homo sapiens) | pIC50 | > 6.00
Cc1cccc2cc(Cn3nc(-c4ccc(F)c(O)c4)c4c(N)ncnc43)n(C3CCCC3)c(=O)c12 | PI3K δ (Homo sapiens) | pIC50 | > 7.00
Cc1cccc2cc(C(C)Nc3nc(N)nc4[nH]cnc34)n(-c3ccccc3)c(=O)c12 (stereo not shown) | PI3K δ (Homo sapiens) | pIC50 | > 7.00
Cc1cccc2cc(C(C)Nc3nc(O)ncc3N)n(-c3ccccc3)c(=O)c12 (stereo not shown) | PI3K δ (Homo sapiens) | pIC50 | < 5.00
CC(=O)Nc1nc2ccc(-c3nn(Cc4cc5cccc(F)c5c(=O)n4C(C)C)c4ncnc(N)c34)cc2s1 | PI3K δ (Homo sapiens) | pIC50 | > 7.00
Cc1ccccc1-n1c(Cn2nc(C#C[C@H](C)O)c3c(N)ncnc32)cc2cccc(C)c2c1=O | PI3K δ (Homo sapiens) | pIC50 | > 6.00
Cc1ccccc1-n1c(Cn2nc(C#C[C@@H](C)O)c3c(N)ncnc32)cc2cccc(F)c2c1=O | PI3K δ (Homo sapiens) | pIC50 | > 6.00
Cc1cccc2cc(C(C)Nc3ncnc4[nH]cnc34)n(-c3c(F)cccc3F)c(=O)c12 (stereo not shown) | PI3K δ (Homo sapiens) | pIC50 | > 7.00
Cc1ccccc1-n1c(Cn2nc(C(=O)NO)c3c(N)ncnc32)cc2cccc(C)c2c1=O | PI3K δ (Homo sapiens) | pIC50 | > 6.00
Cc1cccc2cc(Cn3nc(-c4cccc(O)c4)c4c(N)ncnc43)n(C3CCC3)c(=O)c12 | PI3K δ (Homo sapiens) | pIC50 | > 7.00
Cc1cccc2cc([C@H](C)Nc3ncnc4[nH]nc(C(N)=O)c34)n(-c3ccccc3)c(=O)c12 | PI3K δ (Homo sapiens) | pIC50 | > 7.00

====

Below are molecules with their pIC50 as measured on PI3K γ (Homo sapiens).
Sequence (P48736 whole entry): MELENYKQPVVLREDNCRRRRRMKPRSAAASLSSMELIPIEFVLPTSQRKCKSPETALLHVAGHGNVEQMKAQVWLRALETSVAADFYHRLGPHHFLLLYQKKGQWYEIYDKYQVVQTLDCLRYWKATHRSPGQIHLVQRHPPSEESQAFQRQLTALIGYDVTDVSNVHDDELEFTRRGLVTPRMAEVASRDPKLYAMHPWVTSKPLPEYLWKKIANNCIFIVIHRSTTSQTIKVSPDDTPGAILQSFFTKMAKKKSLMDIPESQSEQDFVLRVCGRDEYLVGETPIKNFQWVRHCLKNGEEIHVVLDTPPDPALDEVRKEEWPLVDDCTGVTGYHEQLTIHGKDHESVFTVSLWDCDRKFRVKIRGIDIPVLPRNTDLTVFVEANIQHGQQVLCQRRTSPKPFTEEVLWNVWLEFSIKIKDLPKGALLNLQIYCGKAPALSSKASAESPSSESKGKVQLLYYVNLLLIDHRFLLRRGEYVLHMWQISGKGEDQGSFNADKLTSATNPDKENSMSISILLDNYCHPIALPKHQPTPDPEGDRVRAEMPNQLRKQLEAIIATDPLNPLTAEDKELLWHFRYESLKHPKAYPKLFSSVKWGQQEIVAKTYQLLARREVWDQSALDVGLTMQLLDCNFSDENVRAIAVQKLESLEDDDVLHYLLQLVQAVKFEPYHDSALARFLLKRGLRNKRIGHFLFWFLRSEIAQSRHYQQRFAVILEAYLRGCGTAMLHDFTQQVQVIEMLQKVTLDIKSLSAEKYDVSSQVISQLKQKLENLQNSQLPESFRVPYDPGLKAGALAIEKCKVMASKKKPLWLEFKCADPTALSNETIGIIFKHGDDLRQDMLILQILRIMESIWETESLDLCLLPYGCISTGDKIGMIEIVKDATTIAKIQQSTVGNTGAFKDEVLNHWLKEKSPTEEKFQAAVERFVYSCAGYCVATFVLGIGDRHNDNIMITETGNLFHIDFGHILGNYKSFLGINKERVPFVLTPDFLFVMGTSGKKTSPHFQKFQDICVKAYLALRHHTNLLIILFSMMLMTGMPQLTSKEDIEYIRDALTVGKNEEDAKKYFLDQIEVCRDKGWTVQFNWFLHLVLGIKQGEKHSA
pIC50: −log10 of the molar value.

chemicalSmiles | pIC50
Cc1ccccc1-n1c(Cn2nc(-c3ccc(O)cc3)c3c(N)ncnc32)cc2cccc(C)c2c1=O | > 7.00
Cc1cccc2cc([C@H](C)NC(=O)c3cnn4ccccc34)n(-c3ccccc3)c(=O)c12 | > 5.00
Cc1ccccc1-n1c(Cn2nc(-c3nn[nH]n3)c3c(N)ncnc32)cc2cccc(C)c2c1=O | > 7.00
Cc1ccccc1-n1c(Cn2nc(C(=O)NO)c3c(N)ncnc32)cc2cccc(C)c2c1=O | > 6.00
Cc1ccccc1-n1c(Cn2nc(-c3cn[nH]c3)c3c(N)ncnc32)cc2cccc(C)c2c1=O | > 7.00
Cc1cccc2cc([C@H](C)Nc3ncnc4[nH]cnc34)n(-c3ccc(F)cc3)c(=O)c12 | > 7.00
Cc1cccc2cc(Cn3nc(-c4cccc(O)c4)c4c(N)ncnc43)n(-c3ccccc3F)c(=O)c12 | > 6.00

====

- testSummary: Pharmacokinetics, rat
- Type: in vivo, Sprague-Dawley rats
- statedConditions: Sprague-Dawley, in vivo, PO, 10 mg/kg

molecule | AUC(0-t) (ng·h/mL)
C[C@H](Nc1ncnc2[nH]cnc12)c1cc2cccc(Cl)c2c(=O)n1-c1ccccc1 [Compound 292] | 2930

====

- testSummary: Clinical study in healthy adult subjects, pharmacokinetics
- Format: in vivo, human
- statedConditions: human, plasma, oral, 2 mg, 2 mg Q12 h, Day 1; mean (% CV); read-out: AUC(0-tau)

chemicalSmiles | AUC (ng·h/mL)
C[C@H](Nc1ncnc2[nH]cnc12)c1cc2cccc(Cl)c2c(=O)n1-c1ccccc1 | 290
